# tested-on: RUNX1 (UniProt Q01196)
# Sequence (Q01196 whole entry): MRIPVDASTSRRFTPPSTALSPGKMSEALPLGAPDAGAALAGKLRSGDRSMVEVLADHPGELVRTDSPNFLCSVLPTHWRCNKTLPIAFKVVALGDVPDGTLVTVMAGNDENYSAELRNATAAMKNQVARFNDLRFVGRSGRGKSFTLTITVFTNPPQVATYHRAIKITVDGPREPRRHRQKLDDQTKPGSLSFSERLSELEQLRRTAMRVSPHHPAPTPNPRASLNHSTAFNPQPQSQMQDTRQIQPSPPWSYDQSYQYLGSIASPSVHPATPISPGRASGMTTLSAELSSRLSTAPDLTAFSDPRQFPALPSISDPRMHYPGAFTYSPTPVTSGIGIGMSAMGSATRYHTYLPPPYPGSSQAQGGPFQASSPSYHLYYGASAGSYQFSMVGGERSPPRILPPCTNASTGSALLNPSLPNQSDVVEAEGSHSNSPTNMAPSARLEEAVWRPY
# assay-info: RUNX1 binding intensity (PBM fluorescence) in presence of ETS1, normalised to RUNX1-only experiment (arbitrary fluorescence units); higher = stronger binding
# condition-description: RUNX1 concentration 2 nM; ETS1 concentration 25 nM
metric: RUNX1 binding intensity

{"columns": ["sequence-data", "tested-on", "reading"],
 "data": [
  ["AGAGCAACAGGATGCAAATAACCACAAGCAAGAATA", "RUNX1 (UniProt Q01196)", 3320],
  ["ATGTTTGGGGCCGGAAGTGGGTTGGAGGTGTGGCGG", "RUNX1 (UniProt Q01196)", 2830],
  ["CTGAGCCGGGACCGGAAGCCGCACCGCCCCCCGCGC", "RUNX1 (UniProt Q01196)", 1770],
  ["GCCGCCGTTTCCTGATTGGTTGTGGGTGGCTACCTC", "RUNX1 (UniProt Q01196)", 1660],
  ["AATATACGGTGAGGATGTGGGCAAAAAACAAAGAGG", "RUNX1 (UniProt Q01196)", 965],
  ["TCTCTTCCTGTGATGGAAATACATTGAGGTTTGCGA", "RUNX1 (UniProt Q01196)", 1740],
  ["CTGCTGCCGCGAACAGGAAACCACTACAATCAGGAG", "RUNX1 (UniProt Q01196)", 1100],
  ["GAGGGAGCAGTTCCGGGTGCGGTGCGCGCCAGGGGC", "RUNX1 (UniProt Q01196)", 2060],
  ["AGCAGGTATACCACTTCCTGTGGTTATCATTTGAGG", "RUNX1 (UniProt Q01196)", 6540],
  ["TAAAGAAACAGGATGACTGTGGTTTACTGCGAGCAT", "RUNX1 (UniProt Q01196)", 1150],
  ["CTAGCAGGAAACAGACAGACCCAGCCACAGAATCTC", "RUNX1 (UniProt Q01196)", 884],
  ["CCTCTTGCTGCCTCTTCCTGTGGTCTTTTCTCTGTC", "RUNX1 (UniProt Q01196)", 2720]
]}

###

Recorded measurements of RUNX1 binding intensity, one per entry
# tested-on: RUNX1 (UniProt Q01196)
# assay-info: RUNX1 binding intensity (PBM fluorescence), RUNX1 alone (arbitrary fluorescence units); higher = stronger binding
# condition-description: RUNX1 concentration 2 nM; ETS1 concentration 0 nM

{"columns": ["sequence-data", "RUNX1 binding intensity"],
 "data": [
  ["GCTCGGAAATACCAATATTGGGCTGTGGTATTTGAA", 911],
  ["GCCCCTTTTTCCTGGGATGAGCGGTTAGCGGAGGGG", 1090],
  ["GAGCGCAGGACGGAAGCTCGGTGCGGGTGCGGCCTC", 702],
  ["GACAGGAAGCCCGCGGCAGCCTCCGTGGTTGCAGAT", 773],
  ["TATTCTTCCTGTACTTAAGCTTGCTGGTGTGGTTTC", 868],
  ["GAAACCGGAAGCGGCGGCTGTCCGCGGTGCCGGCTG", 717],
  ["CCACCCACTTCCTGCCCTAGCTAGTGTGGTATTTTT", 907],
  ["CCTCACTAACATCCTGTTGAGGTGTCCCACAAACCA", 801],
  ["GCGAAAGGAACTTCCTTTGCATGCGGTCAGAGTGCT", 892],
  ["CCCTCCTCTTTCGTTTCCTAACCGCAAATTCCATCA", 58200],
  ["CAGAAAGAGGAAATGATGCGAGTCCACACCGCAGGC", 703],
  ["AGAGACAGCGGGCGGAAACCGCAGAAAAAGTTGAAA", 8270],
  ["AAGTTCTTCCGGGTCTGCAGTCTGTGGTGTGTTTGC", 810],
  ["ACTCACACCACGGAAACTGCGGCTCGGCAGGCTGAG", 808],
  ["TTCACTTCCACCACTTCCTGTGGGTTTTGTTCATCC", 1530],
  ["TTAAACACGGAAGTGCATCGGTTGTTGTGGTTATTC", 845],
  ["AAGGTGGAAAAAGGATGTGGTTCTAAGCTGGCTTCT", 735],
  ["GAGGCCCAGGATGTGGCTGGAGGCCTGTGGTGGGAC", 700],
  ["CTCACTCATCTGACTTCCTGCGGTTTACGACAACAG", 11100],
  ["CCCCTCTCTCCCACTTCCTGTGGTCTCAGTCTTTGT", 1500],
  ["ACCAGAAGCACTGCAGGATGTGGTATCAAGACGCCT", 774],
  ["TCCCTTACCTTCCTGCTGCCACCAAACCACCAAACC", 2510],
  ["AACACCACTTCCTACTGTGAAACCACACTGTATTTG", 1200],
  ["TGAAGTACTAGTCAAGGATGTGGTTTTACATAGCAG", 923],
  ["GGTTTAACGTTTCCGGTTTGTGGCTAGTTTCTTGTC", 1060],
  ["GACTGCACTTCCTCTGCTTCGAGGTCGGTGGTTAGC", 874],
  ["GTGCCTTTTCATGTGGGATGTGGCTTCAAGGAGACC", 911],
  ["TCCTGCCCTCCCATCCTGTGGTCAGAGGCCAGGGCT", 854],
  ["GCAGTCAGAAGGTGCGGATGCGGTAAGGTATGCGCT", 835],
  ["AACCTGCAGACTTCCTGCCATGTGACCACAGGGTCT", 915],
  ["GGTGTGTTCTGGGGAGGAAGTGGGTTTTCAGGTTGT", 799],
  ["ATGCCTTCTTCCAGAGGATGTGGTCGCTACTAGTGG", 725],
  ["AATCATTTCCTGCCCTAACGTTTGTGGTCTGCCTAG", 832],
  ["GCGGCGAACCGGACGCCCCAACCACCCGCCCCCCAC", 987],
  ["AGGCTTCCTGTTTTATCTCGTGTGTGTGGTGCACCA", 970],
  ["AACTAAGTGCAGGGGAAGTTGTGGTTATTTTTTACC", 1270],
  ["AGCGCTTCCTGGCTCCGGCCCCGCCCCTGCGGTCGG", 942],
  ["GCAGGGGCCCATTTCCTGCCACAAGCCCACACAGGA", 749],
  ["TTGGTTGTTGCCAGAGGATGTGGGTTGGCGGGGGAG", 897],
  ["TCTAAATCACTTCCTGTTACAGAAACCACAGGCCTG", 1220],
  ["TACCAACAGGAATCTTTGGGGTCTAAACCGCAAACA", 3800],
  ["CAAGAGCCGGAAGTCCCTTGTGCCGCAGTCCTTCCC", 800],
  ["ACAAGGACTTCCGCCTCCCTGCGGTCCCTCCCCTAC", 1110],
  ["TGGATGGCAAGCAACGGAAACCGCAAACAGGGCTGT", 15600],
  ["GCAGTTTCAAGAGGATGTGGTCTCTTTCACTGCCTG", 724],
  ["GCCCCGGAAGTGGCCCGGCTGTTGGCCGCAGCGGGA", 667],
  ["GCCGTGGGTACGACCGGAAGCCGCAGGTGGGTGAAG", 772],
  ["TTAACCAGACATTTCCTGTGGTCTAAGGTGACCCCA", 1020],
  ["GGGCGGGTGAGACCAGGATGTGGGTTCCCCCACCTT", 775],
  ["AGCAGGTATACCACTTCCTGTGGTTATCATTTGAGG", 966]
]}
